Numbers sourced from patent US11286268B1.

molecular target: recombinant eIF4E (Homo sapiens (Human), UniProt P06730); assay: Fluorescence polarization competition assay for eIF4E binding potency; settings: inhibition of eIF4E/EDA-m7GDP-ATTO-550 binding by 50%; Table 4B calculated values; read-out: IC50
Sequence (P06730 whole entry): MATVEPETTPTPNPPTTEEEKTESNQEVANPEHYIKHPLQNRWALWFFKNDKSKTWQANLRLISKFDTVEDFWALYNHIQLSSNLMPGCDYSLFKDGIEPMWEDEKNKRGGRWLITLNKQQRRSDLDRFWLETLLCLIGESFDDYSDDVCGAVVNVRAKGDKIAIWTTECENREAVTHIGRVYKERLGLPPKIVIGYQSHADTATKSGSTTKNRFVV
MEASURED_QUANTITY: IC50 (µM)

As a guide, the following entries are already answered.
{"COMPOUND": "CC(C)(C#N)c1cc(C(=O)O)cc(-c2cc(Cl)ccc2OCCn2cnc3cnc(C#N)cc3c2=O)c1 [compound 110]", "IC50, µM": 26.9}
{"COMPOUND": "Cc1nc2cc(C(F)(F)F)cc(C#N)c2c(=O)n1CCOc1ccc(Cl)cc1-c1ccnc2c(C(F)(F)C(=O)O)csc12 [compound 295]", "IC50, µM": 0.167}
{"COMPOUND": "Cc1cc(-c2cc(Cl)ccc2OCCn2c(C)nc3cnc(C4(C)CC4)c(C#N)c3c2=O)c2scc(C(=O)O)c2n1 [compound 831]", "IC50, µM": 0.0123}
{"COMPOUND": "Cc1cc(-c2cc(Cl)ccc2OCCn2c(C)nc3cc4c(c(C#N)c3c2=O)CC(N(C)C)C4)c2scc(C(=O)O)c2n1 (stereo not drawn) [compound 611]", "IC50, µM": 0.00776}
{"COMPOUND": "O=C(O)c1cccc(-c2cc(Cl)ccc2OCCn2cnc3cc(F)cc(F)c3c2=O)c1 [compound 78]", "IC50, µM": 1.63}
{"COMPOUND": "Cc1cc(-c2cc(Cl)ccc2OCCn2c(C)nc3c(F)cc(C(F)F)c(C#N)c3c2=O)c2scc(C(=O)O)c2n1 [compound 587]", "IC50, µM": 0.0255}
{"COMPOUND": "Cc1nc2cc(C(F)(F)F)cc(C#N)c2c(=O)n1CCOc1ccc(Cl)cc1-c1cc(C(=O)O)nc2ccsc12 [compound 201]", "IC50, µM": 0.354}
{"COMPOUND": "O=C(O)c1cccc(-c2cc(Cl)ccc2OCCn2cnc3cccc(F)c3c2=O)c1 [compound 4]", "IC50, µM": 3.52}

P = N#Cc1cn(CCOc2ccc(Cl)cc2-c2ccnc3c(C(=O)O)csc23)c2c(=O)[nH]c(Nc3ccccc3)nc12 [compound 175]
Q = Cc1cc(-c2cc(Cl)ccc2OCCn2c(C)nc3c(C)nc(-c4cc(F)ccc4C)c(C#N)c3c2=O)c2scc(C(=O)O)c2n1 [compound 927]
R = Cc1c(CC#Cc2ccc(Cl)cc2-c2ccnc3c(C(=O)O)csc23)c(=O)c2c(C#N)c(Cl)c(C(F)(F)F)cc2n1C [compound 669]
S = Cc1cc(-c2cc(Cl)ccc2OCCn2c(C)nc3cc(C(F)(F)F)c(C4CC4)nc3c2=O)c2scc(C(=O)O)c2n1 [compound 795]
Put the items in order so that reported IC50 rises from first to last. Put the labels in the requested order and list them out.
Q, S, P, R
(Q: 0.00634 µM, S: 0.0121 µM, P: 0.0204 µM, R: 0.0364 µM)

====

Item-by-item account of IC50
target: recombinant eIF4E (Homo sapiens (Human), UniProt P06730); experiment: Fluorescence polarization competition assay for eIF4E binding potency; conditions: fluorescence polarization competition, 75 nM recombinant eIF4E, 20 nM EDA-m7GDP-ATTO-550; IC50 class; read-out: elF4E FP

In the examples that follow, each entry is paired with its recorded IC50.
{"COMPOUND_SMILES": "Cc1nc2cc(C(F)(F)F)c(N3CCN(CC(F)F)CC3)c(C#N)c2c(=O)n1CCOc1ccc(Cl)cc1-c1cccc(C(=O)O)c1", "ASSAY_SYSTEM": "recombinant eIF4E (Homo sapiens (Human), UniProt P06730)", "IC50": "50 to 1000 nM"}
{"COMPOUND_SMILES": "Cc1cc(-c2cc(Cl)ccc2OCCn2c(C)nc3cc(C(F)(F)F)c(-c4ccncc4C)nc3c2=O)c2scc(C(=O)O)c2n1", "ASSAY_SYSTEM": "recombinant eIF4E (Homo sapiens (Human), UniProt P06730)", "IC50": "< 50 nM"}
{"COMPOUND_SMILES": "Cc1cc(-c2cc(Cl)ccc2OCCn2c(C)nc3cc(C(F)(F)F)c(OCC(F)(F)F)c(C#N)c3c2=O)c2scc(C(=O)O)c2n1", "ASSAY_SYSTEM": "recombinant eIF4E (Homo sapiens (Human), UniProt P06730)", "IC50": "< 50 nM"}
{"COMPOUND_SMILES": "Cc1nc2cc(C(F)(F)F)cc(S(C)(=O)=O)c2c(=O)n1CCOc1ccc(Cl)cc1-c1ccnc2c(C(=O)O)csc12", "ASSAY_SYSTEM": "recombinant eIF4E (Homo sapiens (Human), UniProt P06730)", "IC50": "50 to 1000 nM"}
{"COMPOUND_SMILES": "Cc1ccc2nc(C)n(CCOc3ccc(Cl)cc3-c3ccnc4c(C(=O)O)csc34)c(=O)c2c1C#N", "ASSAY_SYSTEM": "recombinant eIF4E (Homo sapiens (Human), UniProt P06730)", "IC50": "< 50 nM"}

Then this compound:
So, `Cc1nc2c(C#N)c(C(F)(F)F)cc(C#N)c2c(=O)n1CCOc1ccc(Cl)cc1-c1ccnc2c(C(=O)O)csc12` ? Its IC50 was 50 to 1000 nM
